Target: T1, human myostatin (mature, recombinant; R&D Systems) (human, UniProt O14793 267-375)
T1 sequence: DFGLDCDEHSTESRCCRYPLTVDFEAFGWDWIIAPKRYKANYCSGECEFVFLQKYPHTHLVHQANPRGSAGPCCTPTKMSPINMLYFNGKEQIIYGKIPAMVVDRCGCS
Assay: cell-based or functional assay
measurement-kind: pSmad2 IC50, 4-point (pM)
Report the value in pM with no unit label.

Worked cases, pSmad2 IC50, 4-point given:
3115_D04 (designed binder) MGVSDVPRDLEVVAATPTSLLISWDAPRGLARYYRITYGETGGNSPVQEFTVFGRGTTATISGLKPGVDYTITVYAVTIDRDGTRSFDPISINYRTEIDKPSQHHHHHH | 60
3115_E06 (designed binder) MGVSDVPRDLEVVAATPTSLLISWDAPAGLARYYRITYGETGGNSPVQEFTVVGRGNTATISGLKPGVDYTITVYAVTIFRDGPVTWDPISINYRTEIDKPSQHHHHHH | 60
3116_H06 (designed binder) MGVSDVPRDLEVVAATPTSLLISWDAPAGLARYYRITYGETGGNSPVQEFTVVGRGNTATISGLKPGVDYTITVYAVTIFRDGVVNYGPISINYRTEIDKPSQHHHHHH | 60

What the record says about 3116_A07 (designed binder) MGVSDVPRDLEVVAATPTSLLISWDAPKGLARYYRITYGETGGNSPVQEFTVVGRGNTATISGLKPGVDYTITVYAVTIFRDGPVTWDPISINYRTEIDKPSQHHHHHH : pSmad2 IC50, 4-point is 60
